Here the recorded IC50 is given for each entry.
Target: CCK receptor (brain) (Cavia porcellus)
Construct: The cerebral cortex was dissected and used as a receptor source; from tissue; host or cells: cerebral cortex of male Hartley guinea pig, membrane homogenate
Sequence (H0VZC5 entry or part of it): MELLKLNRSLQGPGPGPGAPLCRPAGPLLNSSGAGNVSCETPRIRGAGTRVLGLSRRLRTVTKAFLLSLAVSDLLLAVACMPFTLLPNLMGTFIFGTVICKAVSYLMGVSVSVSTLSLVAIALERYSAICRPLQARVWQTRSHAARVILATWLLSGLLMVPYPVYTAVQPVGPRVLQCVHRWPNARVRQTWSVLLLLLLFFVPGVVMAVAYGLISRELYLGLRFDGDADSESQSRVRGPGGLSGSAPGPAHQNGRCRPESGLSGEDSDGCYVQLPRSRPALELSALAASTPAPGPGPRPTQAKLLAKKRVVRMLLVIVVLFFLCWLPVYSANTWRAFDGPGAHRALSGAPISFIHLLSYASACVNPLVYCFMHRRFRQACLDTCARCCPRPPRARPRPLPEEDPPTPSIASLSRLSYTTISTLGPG
Assay: CCK receptor binding (brain) method, inhibition of ^125 I-CCK-33 binding
Design: species or system male Hartley guinea pig
Settings: read-out: IC50 CCK, Brain

>>> observed_result("CN1c2ccccc2C(c2ccccc2F)=NCC1CNC(=O)c1cc2ccccc2[nH]1 (stereo not shown)")
"14 µM"
>>> observed_result("CC(C)COC(=O)NCC1CN=C(c2ccccc2F)c2ccccc2N1C (stereo not shown)")
"~100 µM"
>>> observed_result("COC(=O)[C@H](Cc1ccccc1)NCC1CN=C(c2ccccc2F)c2ccccc2N1C (stereo partly shown)")
"~100 µM"

Here is the next item to consider.
Prompt: Find the recorded IC50 belonging to CN1c2ccccc2C(c2ccccc2F)=NCC1CNC(=O)[C@@H](O)c1ccccc1 (stereo partly shown) and report it.
Completion: ~100 µM
